I'd appreciate it if you could supply IC50 values for the items below.
target: CD73 (Homo sapiens (Human), UniProt P21589); experiment: Biochemical CD73 Assay (Malachite Green free phosphate detection); conditions: recombinant human CD73 2 nM, AMP 40 μM, 45 min at 37° C.
Sequence (P21589 27-574): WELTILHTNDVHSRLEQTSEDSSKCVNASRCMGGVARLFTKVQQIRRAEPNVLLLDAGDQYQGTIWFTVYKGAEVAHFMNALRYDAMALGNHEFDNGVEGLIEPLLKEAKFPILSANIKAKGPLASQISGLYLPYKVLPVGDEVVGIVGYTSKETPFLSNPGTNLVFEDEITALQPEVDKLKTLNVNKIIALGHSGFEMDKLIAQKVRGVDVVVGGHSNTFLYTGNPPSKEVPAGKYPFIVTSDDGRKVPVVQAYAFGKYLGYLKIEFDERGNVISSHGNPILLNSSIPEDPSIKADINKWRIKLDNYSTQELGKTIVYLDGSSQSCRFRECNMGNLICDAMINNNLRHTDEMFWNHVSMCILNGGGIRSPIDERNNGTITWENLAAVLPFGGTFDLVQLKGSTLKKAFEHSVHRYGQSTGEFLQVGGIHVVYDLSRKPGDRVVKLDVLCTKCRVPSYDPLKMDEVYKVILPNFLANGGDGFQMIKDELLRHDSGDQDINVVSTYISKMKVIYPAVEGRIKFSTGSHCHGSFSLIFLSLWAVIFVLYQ

Sure, the documented IC50 for COC[C@@](OC[C@H]1O[C@@H](n2ncc3c(NC4CCCC4)nc(Cl)nc32)[C@H](O)[C@@H]1O)(C(=O)N=[S@@](C)(=O)NC(C)=O)P(=O)(O)O is 1.6 nM

Sure, the documented IC50 for COC[C@@](OC[C@H]1O[C@@H](n2ncc3c(NC4CCCC4)nc(Cl)nc32)[C@H](O)[C@@H]1O)(C(=O)N=[S@](C)(=O)NC(C)=O)P(=O)(O)O is 0.58 nM

Sure, the documented IC50 for COC[C@](OC[C@H]1O[C@@H](n2ncc3c(NC4CCCC4)nc(Cl)nc32)[C@H](O)[C@@H]1O)(C(=O)N=[S@@](C)(=O)NC(=O)OC)P(=O)(O)O is 879 nM

Sure, the documented IC50 for COC[C@@](OC[C@H]1O[C@@H](n2ncc3c(NC4CCCC4)nc(Cl)nc32)[C@H](O)[C@@H]1O)(C(=O)N=S(C)(=O)NC(=O)C(C)C)P(=O)(O)O (single isomer, unassigned) [Example 15] is 6.3 nM

Sure, the documented IC50 for CNC(=O)N[S@@](C)(=O)=NC(=O)[C@@](COC)(OC[C@H]1O[C@@H](n2ncc3c(NC4CCCC4)cc(Cl)nc32)[C@H](O)[C@@H]1O)P(=O)(O)O is 0.6 nM

Sure, the documented IC50 for COC[C@@](OC[C@H]1O[C@@H](n2ncc3c(NC4CCCC4)nc(Cl)nc32)[C@H](O)[C@@H]1O)(C(=O)N=S(C)(=O)NC(=O)C(C)C)P(=O)(O)O (single isomer, unassigned) [Example 16] is 0.78 nM

Sure, the documented IC50 for CNC(=O)N[S@](C)(=O)=NC(=O)[C@@](COC)(OC[C@H]1O[C@@H](n2ncc3c(NC4CCCC4)cc(Cl)nc32)[C@H](O)[C@@H]1O)P(=O)(O)O is 10 nM

Sure, the documented IC50 for CCC(=O)NS(C)(=O)=NC(=O)[C@@](COC)(OC[C@H]1O[C@@H](n2ncc3c(NC4CCCC4)nc(Cl)nc32)[C@H](O)[C@@H]1O)P(=O)(O)O (stereo partly shown) [Example 13] is 0.7 nM

Sure, the documented IC50 for COC[C@@](OC[C@H]1O[C@@H](n2ncc3c(NC4CCCC4)nc(Cl)nc32)[C@H](O)[C@@H]1O)(C(=O)N=S(C)(=O)NC(=O)C1COC1)P(=O)(O)O (single isomer, unassigned) is 5.1 nM

Sure, the documented IC50 for COC[C@@](OC[C@H]1O[C@@H](n2ncc3c(NC4CCCC4)nc(Cl)nc32)[C@H](O)[C@@H]1O)(C(=O)N=[S@](C)(=O)NC(=O)C1COC1)P(=O)(O)O is 0.21 nM

---

target: CD73 (Homo sapiens (Human)); experiment: Cellular CD73 Assay (primary human CD3+ T-cells with AMP); conditions: primary human peripheral blood CD3+ T-cells, 40 μM AMP, 3 days; readout (cell division or IL-2/IFN-γ) not specified for the column
I'd appreciate it if you could supply pEC50 values for the items below.
Quick note: pEC50 means taking -log10 of the concentration in moles per liter.

Sure, the documented pEC50 for CNC(=O)N[S@](C)(=O)=NC(=O)[C@@](COC)(OC[C@H]1O[C@@H](n2ncc3c(NC4CCCC4)nc(Cl)nc32)[C@H](O)[C@@H]1O)P(=O)(O)O is 8.80

Sure, the documented pEC50 for COC[C@@](OC[C@H]1O[C@@H](n2ncc3c(NC4CCCC4)nc(Cl)nc32)[C@H](O)[C@@H]1O)(C(=O)N=[S@](C)(=O)NC(=O)OC)P(=O)(O)O is 9.00

Sure, the documented pEC50 for COC[C@@](OC[C@H]1O[C@@H](n2ncc3c(NC4CCCC4)nc(Cl)nc32)[C@H](O)[C@@H]1O)(C(=O)N=[S@](C)(=O)NC(=O)C1CC1)P(=O)(O)O is 9.04

Sure, the documented pEC50 for CCC(=O)NS(C)(=O)=NC(=O)[C@@](COC)(OC[C@H]1O[C@@H](n2ncc3c(NC4CCCC4)nc(Cl)nc32)[C@H](O)[C@@H]1O)P(=O)(O)O (stereo partly drawn) [Example 13] is 9.17

Sure, the documented pEC50 for CNC(=O)N[S@@](C)(=O)=NC(=O)[C@@](COC)(OC[C@H]1O[C@@H](n2ncc3c(NC4CCCC4)nc(Cl)nc32)[C@H](O)[C@@H]1O)P(=O)(O)O is 9.14

Sure, the documented pEC50 for COC[C@@](OC[C@H]1O[C@@H](n2ncc3c(NC4CCCC4)nc(Cl)nc32)[C@H](O)[C@@H]1O)(C(=O)N=[S@](C)(=O)NC(C)=O)P(=O)(O)O is 9.01

Sure, the documented pEC50 for COC[C@@](OC[C@H]1O[C@@H](n2ncc3c(NC4CCCC4)nc(Cl)nc32)[C@H](O)[C@@H]1O)(C(=O)N=S(C)(=O)NC(=O)C(C)C)P(=O)(O)O (single isomer, unassigned) [Example 16] is 8.87

Sure, the documented pEC50 for COC[C@@](OC[C@H]1O[C@@H](n2ncc3c(NC4CCCC4)nc(Cl)nc32)[C@H](O)[C@@H]1O)(C(=O)N=[S@](C)(N)=O)P(=O)(O)O is 9.29

Sure, the documented pEC50 for COC[C@@](OC[C@H]1O[C@@H](n2ncc3c(NC4CCCC4)nc(Cl)nc32)[C@H](O)[C@@H]1O)(C(=O)N=[S@@](C)(N)=O)P(=O)(O)O is 8.82
